# target_entity: CMD1 (UniProt A0A2K3D5Z7 1-532)
# Sequence (A0A2K3D5Z7 whole entry): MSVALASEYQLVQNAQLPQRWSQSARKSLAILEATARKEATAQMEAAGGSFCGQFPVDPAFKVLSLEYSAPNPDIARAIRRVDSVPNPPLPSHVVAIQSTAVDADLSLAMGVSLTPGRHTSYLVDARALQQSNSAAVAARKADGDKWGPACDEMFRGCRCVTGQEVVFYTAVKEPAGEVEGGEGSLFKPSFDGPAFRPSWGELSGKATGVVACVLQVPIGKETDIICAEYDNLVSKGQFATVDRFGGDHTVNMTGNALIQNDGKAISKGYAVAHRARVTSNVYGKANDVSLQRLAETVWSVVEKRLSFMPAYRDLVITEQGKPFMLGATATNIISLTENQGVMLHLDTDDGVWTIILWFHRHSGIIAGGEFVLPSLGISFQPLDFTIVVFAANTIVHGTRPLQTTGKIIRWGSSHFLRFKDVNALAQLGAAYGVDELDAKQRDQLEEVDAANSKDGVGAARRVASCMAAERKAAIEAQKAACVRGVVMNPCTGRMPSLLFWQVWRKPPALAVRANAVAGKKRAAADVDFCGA
# assay: BLI; BLI: 20 mM Tris-HCl pH 8.0, 50 mM NaCl, 0.1% Tween-20, 0.5% BSA, 25 C; biotin-DNA on streptavidin sensors, 1:1 fit
# assay_setup: protein: recombinant; tags: His6-SUMO, cleaved with ULP1; label: 5'-biotin
pKd: −log10 of the molar value.
measure_name: pKd

binder | measure_name | observed_result
TTTTTTCTTTTTTCTTTTTTCTTTTTTCTTTTTTCTTTTT (ssDNA) [ssDNA (40 nt)] | pKd | 5.56
